Data origin, for the record: ChEMBL document CHEMBL4742385

EXPERIMENTAL TARGET: CDK8/Cyclin C (Homo sapiens) (UniProt P49336+P24863)
ASSAY METHOD TEXT: Inhibition of human CDK8/Cyc C expressed in Sf21 cells at 1 uM measured after 1 hr by fluorescence plate reader relative to control
RECORDED METRIC: inhibition

CPD SMILES: O=C(/C=C/c1cnccc1-c1cnn(C2CC2)c1)Nc1ccc(COCC(F)(F)F)cc1F
inhibition: 101%

CPD SMILES: COCCOc1ccc(NC(=O)/C=C/c2cnccc2-c2cnn(C)c2)cc1
inhibition: 98%

CPD SMILES: Cn1cc(-c2ccncc2/C=C/C(=O)Nc2ccc(CCC(F)(F)F)cc2)cn1
inhibition: 98%

CPD SMILES: O=C(/C=C/c1cnccc1-c1cnn(C2CC2)c1)Nc1ccc2c(c1)CN(CC(F)(F)F)C2
inhibition: 103%

Exam item: What inhibition value was documented for this molecule, Cn1cc(-c2ccncc2/C=C/C(=O)Nc2ccc(CN3CCOCC3)c(C#N)c2)cn1 ?
Marked response: 100%

Exam item: What inhibition value was documented for this molecule, Cn1cc(-c2ccncc2/C=C/C(=O)Nc2ccc(CC(F)(F)F)cc2)cn1 ?
Marked response: 99%

Exam item: What inhibition value was documented for this molecule, O=C(/C=C/c1cnccc1-c1cnn(Cc2ccccn2)c1)Nc1ccc(CN2CCOCC2)cc1 ?
Marked response: 101%

Exam item: What inhibition value was documented for this molecule, Cn1cc(-c2ccncc2/C=C/C(=O)Nc2ccc3c(c2)OCCO3)cn1 ?
Marked response: 100%

Exam item: What inhibition value was documented for this molecule, Cn1cc(-c2ccncc2/C=C/C(=O)Nc2ccc(CN3CCOCC3)cc2F)cn1 ?
Marked response: 99%

Exam item: What inhibition value was documented for this molecule, Cn1cc(-c2ccncc2/C=C/C(=O)Nc2ccc3cc[nH]c3c2)cn1 ?
Marked response: 98%
